test system: Lefty1; assay: Lefty1 binders on small-molecule microarrays, primary screen, biochemical, small-molecule microarray, 635/667 nm fluorescence (AID 1139); settings: small-molecule microarray binding, fluorescence 635/667; higher = more signal
Returns one of 1 (yes) or 0 (no); 1 (yes) when composite z-score is >= 0.5.

Please review the following examples before continuing.
smi: CC(C)CON=C1[C@H]2CCn3c(=O)n(C)c(=O)n3[C@H]2[C@H](O)[C@@H]2O[C@H]12
label: 1 (yes)
//
smi: COc1ccc(COC(=O)NN=C2C[C@@H](O)[C@@H](O)[C@@H]3[C@@H]4C(=O)N(C[C@@H]5CCCO5)C(=O)[C@@H]4CC[C@@H]23)cc1
label: 0 (no)
//
smi: COc1cccc([C@H]2Oc3ccc(OC)cc3C(=NO[C@@H](C)c3cc(-c4c(C)cc(C)cc4C)no3)[C@@H]2O)c1
label: 0 (no)
//
smi: O=C1C=C[C@@H](O)[C@@H]2[C@@H]3C(=O)N(Cc4ccc5c(c4)OCO5)C(=O)[C@@H]3CC[C@@H]12
label: 1 (yes)
//
smi: CCc1cc2c(nc1CC)CCN(CCC(C)=NOC[C@@H](C)[C@H](OCc1ccccc1)C(C)C)C2
label: 0 (no)

Lab note: next compound to report on.
Entry CCOC(=O)CCN1C(=O)[C@H]2[C@H]3[C@H](O)[C@H](O)CC(=NNC(=O)OCc4ccc(OC)cc4)[C@H]3CC[C@H]2C1=O : is its composite z-score no less than 0.5?
0 (no)
